# EXPERIMENTAL_TARGET: Gamma-aminobutyric acid receptor subunit alpha-5 (Homo sapiens, UniProt P31644)
# Sequence (P31644 whole entry): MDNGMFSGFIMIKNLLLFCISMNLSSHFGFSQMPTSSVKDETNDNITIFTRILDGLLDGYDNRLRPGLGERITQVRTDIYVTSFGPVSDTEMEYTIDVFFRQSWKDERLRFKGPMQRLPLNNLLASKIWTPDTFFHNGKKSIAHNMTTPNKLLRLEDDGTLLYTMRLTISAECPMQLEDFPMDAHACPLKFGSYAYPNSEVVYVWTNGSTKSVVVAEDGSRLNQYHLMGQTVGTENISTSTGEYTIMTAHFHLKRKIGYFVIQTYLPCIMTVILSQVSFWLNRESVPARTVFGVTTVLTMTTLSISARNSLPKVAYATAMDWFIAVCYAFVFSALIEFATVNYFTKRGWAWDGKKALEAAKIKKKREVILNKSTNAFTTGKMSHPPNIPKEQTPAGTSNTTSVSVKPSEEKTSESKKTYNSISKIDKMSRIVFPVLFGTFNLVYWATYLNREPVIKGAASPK
# ASSAY_DETAILS: Binding affinity to GABAa alpha5 (unknown origin) assessed as inhibition constant
EXPERIMENTAL_ENDPOINT: Ki

Query: Quote Ki with test system Gamma-aminobutyric acid receptor subunit alpha-5 (Homo sapiens, UniProt P31644) for `CCOC(=O)c1ncn2c1CN([11CH3])C(=O)c1cc(N=[N+]=[N-])ccc1-2`
Result: ~0.5 nM

* * *

# ASSAY_DETAILS: Lipophilicity, logP of the compound
# MEASUREMENT_SETUP: octanol/water
Lab note: compare logP against 3. Equal or greater, write label 1. Smaller, write label 0.

- NC(=O)c1ccc(Oc2ccc(CN3CCC[C@H]3c3cccnc3)cc2)c([18F])c1: label 1
- [11CH3]OCc1cccnc1N1CCN(C[C@H]2COc3ccccc3O2)CC1: label 0
- [11CH3]OCc1scnc1N1CCN(C[C@H]2COc3ccccc3O2)CC1: label 0

Query: Confirm if logP reported for the compound `Oc1ccc2c(c1)CCN(CCCCc1ccccc1[18F])C[C@@H]2O` is 3 or above.
Result: label 1

Query: Confirm if logP reported for the compound FC(F)OC(F)C(F)(F)F (centres undefined) is 3 or above.
Result: label 0

Query: Confirm if logP reported for the compound `COc1cnc(OCc2cn(-c3ccc([18F])c(C)c3)nn2)nc1` is 3 or above.
Result: label 0
